# Protocol details: Broad band UVB and UVA absorption (SPF and UVA/UVB ratio) of sunscreens
# Type: physicochemical
# Recorded conditions: 250 μM sunscreen
Measurement name: SPF1 (sun protection factor corresponding to UVB absorption)

Recorded results for 2 molecules are shown here.
O=c1cc(-c2ccccc2)oc2cc(O)c(O)c(O)c12 [Baicalein]
3.65
O=C1c2c(O)cc(O)cc2O[C@H](c2ccc(O)c(O)c2)[C@H]1O [Taxifolin]
6.38

(A) O=c1c(O)c(-c2ccc(O)cc2O)oc2cc(O)cc(O)c12 [Morin]
(B) C[C@@H]1O[C@@H](O[C@@H]2[C@@H](O)[C@H](OCCc3ccc(O)c(O)c3)O[C@H](CO)[C@H]2OC(=O)/C=C/c2ccc(O)c(O)c2)[C@H](O)[C@H](O)[C@H]1O [Verbascoside]
Problem: API: POST /compare with A and B ; response names the item with higher SPF1 (sun protection factor corresponding to UVB absorption). Indicate which entry you chose by stating its label.
Solution: B

---

# Protocol details: Photo stability: effect of solar simulating UV irradiation on SPF values of sunscreens
# Assay type: physicochemical
# Recorded conditions: solar simulated UVB+UVA irradiation
Measurement name: Photo-stability on exposure to UV irradiation (in words)

O=c1cc(-c2ccccc2)oc2cc(O)c(O)c(O)c12 [Baicalein]
easily destructed
O=c1c(O)c(-c2cc(O)c(O)c(O)c2)oc2cc(O)cc(O)c12 [myricetin]
easily destructed

---

# Protocol details: Broad band UVB and UVA absorption (SPF and UVA/UVB ratio) of sunscreens
# Assay type: physicochemical
Measurement name: UVA/UVB (ratio of UVA to UVB absorption)

O=C1c2c(O)cc(O)cc2O[C@H](c2ccc(O)c(O)c2)[C@H]1O
0.46

(P) C[C@@H]1O[C@@H](O[C@@H]2[C@@H](O)[C@H](OCCc3ccc(O)c(O)c3)O[C@H](CO)[C@H]2OC(=O)/C=C/c2ccc(O)c(O)c2)[C@H](O)[C@H](O)[C@H]1O [Verbascoside]
(Q) O=c1cc(-c2ccccc2)oc2cc(O)c(O)c(O)c12
(R) O=c1c(O)c(-c2ccc(O)cc2O)oc2cc(O)cc(O)c12
Problem: Reorder the items by UVA/UVB (ratio of UVA to UVB absorption), least to greatest. Return the labels ranked in the requested order, please.
Solution: P, Q, R

---

# Protocol details: Photo stability: effect of solar simulating UV irradiation on SPF values of sunscreens
# Assay type: physicochemical
# Recorded conditions: UV (66% UVA + 33% UVB) 6.0 J/cm^2 (40 min); fifty μM solution
Measurement name: SPF after UV irradiation

Recorded results for 3 compounds are shown here.
O=C1c2c(O)cc(O)cc2O[C@H](c2ccc(O)c(O)c2)[C@H]1O
6.39
COc1cc(/C=C/C(=O)O)ccc1O [trans-Ferulic acid]
3.74
O=c1cc(-c2ccccc2)oc2cc(O)c(O)c(O)c12
3.79

(A) Oc1ccc(C=Cc2cc(O)cc(O)c2)cc1
(B) C[C@@H]1O[C@@H](O[C@@H]2[C@@H](O)[C@H](OCCc3ccc(O)c(O)c3)O[C@H](CO)[C@H]2OC(=O)/C=C/c2ccc(O)c(O)c2)[C@H](O)[C@H](O)[C@H]1O [Verbascoside]
Problem: API: POST /compare with A and B ; response names the item with higher SPF after UV irradiation. Indicate which entry you chose by stating its label.
Solution: B
(B: 8.26, A: 4.63)
